Tested on: Fusobacterium nucleatum
Assay: MIC of antibacterial agents alone and in combination with CK-4
Assay type: cell-based
Conditions: F. nucleatum; with CK-4 25 μg/ml
QUANTITY NAME: MIC (µg/mL)
Numbers only here, please. The scale is µg/mL.

* C=CCc1ccc(O)c(-c2cc(CC=C)ccc2O)c1 | 0.5
* Oc1cc(Cl)ccc1Oc1ccc(Cl)cc1Cl | 0.5
* C=CCc1ccc(O)c(-c2ccc(O)c(CC=C)c2)c1 | 0.5

Which MIC reading was recorded for the molecule `CCCCc1ccc(O)c(-c2cc(CCCC)ccc2O)c1` ?
1.0
